kcat values, listed per item
targetOfAssay: FIXa (Homo sapiens, UniProt P00740)
Sequence (P00740 47-191 limits assumed): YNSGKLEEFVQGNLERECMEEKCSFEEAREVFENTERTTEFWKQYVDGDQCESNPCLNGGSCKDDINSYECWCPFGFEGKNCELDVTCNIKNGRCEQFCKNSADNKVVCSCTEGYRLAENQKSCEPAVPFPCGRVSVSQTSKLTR
Sequence (P00740 227-461 limits assumed): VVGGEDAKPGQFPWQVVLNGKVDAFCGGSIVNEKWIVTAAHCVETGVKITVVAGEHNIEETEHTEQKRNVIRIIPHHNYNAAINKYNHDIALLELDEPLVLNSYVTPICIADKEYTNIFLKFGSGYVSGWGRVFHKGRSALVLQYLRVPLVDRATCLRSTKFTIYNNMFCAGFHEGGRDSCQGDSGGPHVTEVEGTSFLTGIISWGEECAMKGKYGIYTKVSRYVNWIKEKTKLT
assayComment: Km/Kcat of FIXa for the substrate FX (FXa generation assay)
Type: biochemical
Set-up: purchased Haematologic Technologies
runParameters: hFIXa 10 nM, FX 10-1000 nM, PL, CaCl2; compound 1 3 μM, compounds 3, 4, 5 1 μM, compound C 10 μM

{"substance": "RRAPGKLQCLASYCWLFWTGIA [Compound 3]", "targetOfAssay": "FIXa (Homo sapiens, UniProt P00740)", "unitOfMeasurement": "s⁻¹", "kcat": 0.000295}
{"substance": "rRAPGKLTCLASYCWLFWTGIA [Compound 5]", "targetOfAssay": "FIXa (Homo sapiens, UniProt P00740)", "unitOfMeasurement": "s⁻¹", "kcat": 0.000298}
{"substance": "KLTCLASYCWLF [Compound 1]", "targetOfAssay": "FIXa (Homo sapiens, UniProt P00740)", "unitOfMeasurement": "s⁻¹", "kcat": 0.00024}
{"substance": "RRAPGKLTCLASYCWLFWTGIA [Compound 4]", "targetOfAssay": "FIXa (Homo sapiens, UniProt P00740)", "unitOfMeasurement": "s⁻¹", "kcat": 0.000285}

---

targetOfAssay: FIXa (Homo sapiens, UniProt P00740)
assayComment: FXa generation assay with human FIXa
Assay type: biochemical
Design: purchased Haematologic Technologies
runParameters: FXa generation assay using human FIXa; class symbols
measuredAttribute: Vmax

{"polymerSequence": "LLQIPNLTCLGSYCWLDNGVYA", "result": "(+) ((+)<1)"}
{"polymerSequence": "KLTCLASYCWYF", "result": "(+++) ((+++)>2)"}
{"polymerSequence": "QQRQIKMSCLASYCWLFGSIPW", "result": "(++) ((++) 1-2)"}
{"polymerSequence": "MAGMLKLTCFASYCGLFPLVSS", "result": "(++) ((++) 1-2)"}
{"polymerSequence": "LTWREKLACLASYCWLFLWGAP", "result": "(++) ((++) 1-2)"}
{"polymerSequence": "QGQARKLACLASYCWLFPSSAG", "result": "(+) ((+)<1)"}
{"polymerSequence": "KLTCLATYCWLF", "result": "(++) ((++) 1-2)"}
{"polymerSequence": "QEQPAKLTCRGSYCWLFKRGDQ", "result": "(+) ((+)<1)"}
{"polymerSequence": "KLTCLGSYCWLF", "result": "(+++) ((+++)>2)"}
{"polymerSequence": "GIQGSEVACRASFCRLFEQGHV", "result": "(+) ((+)<1)"}
{"polymerSequence": "GSCRDQLTCLSSDRWQFFRRVS", "result": "(+) ((+)<1)"}
{"polymerSequence": "KLKCLSSECQLL", "result": "(+) ((+)<1)"}
{"polymerSequence": "RRCPGKLQALASYCWLFWTGIA", "result": "(+++) ((+++)>2)"}
{"polymerSequence": "SLADTQLTWLARQYWLSVSEGS", "result": "(+) ((+)<1)"}
{"polymerSequence": "TLLYQNRTCLASYCWLFDKRSV", "result": "(+) ((+)<1)"}
{"polymerSequence": "RGRSAKLTCLASYCWLFFGVIL", "result": "(+++) ((+++)>2)"}
{"polymerSequence": "VSGTGKLTCLASYCWLFQLGSF", "result": "(++) ((++) 1-2)"}
{"polymerSequence": "FGQPSRLTCLASYCWLFGNLVT", "result": "(++) ((++) 1-2)"}
{"polymerSequence": "TLDSKNLQCLGSSCWLFSSGLS", "result": "(+) ((+)<1)"}
{"polymerSequence": "QLTCLASYCWLF", "result": "(+) ((+)<1)"}
{"polymerSequence": "RLTCLASYCWLF", "result": "(+++) ((+++)>2)"}
{"polymerSequence": "AQTRVARCCQLF", "result": "(+) ((+)<1)"}
{"polymerSequence": "YARDSTLTCQARTCQLVDYLGP", "result": "(+) ((+)<1)"}
{"polymerSequence": "VGEHRKISCVASNCQLLRSGLA", "result": "(+) ((+)<1)"}
{"polymerSequence": "TLTCRASYCQLF", "result": "(+) ((+)<1)"}
{"polymerSequence": "KLTCQASYCWLF", "result": "(++) ((++) 1-2)"}
{"polymerSequence": "HGLADRLTCLSSDCWLQPFGTS", "result": "(+) ((+)<1)"}
{"polymerSequence": "QQTCQASQCQLF", "result": "(+) ((+)<1)"}
{"polymerSequence": "VARASKVECLASYCQLFVGGEV", "result": "(+) ((+)<1)"}
{"polymerSequence": "MLTCIASYCQLG", "result": "(+) ((+)<1)"}
{"polymerSequence": "RGRSAKLRCLASYCWLFFGVIL", "result": "(+++) ((+++)>2)"}
{"polymerSequence": "GDSGRKLSCLGSYCWLSVQFMA", "result": "(++) ((++) 1-2)"}
{"polymerSequence": "EQTCLASYCWLF", "result": "(+) ((+)<1)"}
{"polymerSequence": "SGRGGKLTCQASFCQLFGNGLS", "result": "(++) ((++) 1-2)"}
{"polymerSequence": "QAKMLKLTCLASYCWLFWVTRS", "result": "(+++) ((+++)>2)"}
{"polymerSequence": "HQQRRKLTCLAGYCWLFVLGPS", "result": "(+++) ((+++)>2)"}
{"polymerSequence": "RSTVSQMRCLASYCWLFPALVS", "result": "(++) ((++) 1-2)"}
{"polymerSequence": "RPGGGKVTCQASYCWPFLARAG", "result": "(+) ((+)<1)"}
{"polymerSequence": "SRQSDKPTCLAISCSLLTSNVR", "result": "(+) ((+)<1)"}
{"polymerSequence": "HMQWGKLPCLASYCWLFWYGIG", "result": "(+++) ((+++)>2)"}
{"polymerSequence": "GFGSRKLTSLASYGWLIQDRLP", "result": "(+) ((+)<1)"}
{"polymerSequence": "LRTQPKVTGLASCSGLVNCSRD", "result": "(+) ((+)<1)"}
{"polymerSequence": "VDKGHQLRCQAGYCWLLGYNRE", "result": "(+) ((+)<1)"}
{"polymerSequence": "SGFGMKLTCLASYCGLFQGEIG", "result": "(+) ((+)<1)"}
{"polymerSequence": "FPIQHKLTCLSSDCWLFPSHSY", "result": "(+) ((+)<1)"}
{"polymerSequence": "AQLRRKLTCLASYCWLFGFFSP", "result": "(++) ((++) 1-2)"}
{"polymerSequence": "DSRSAKRKCLASYCWLFGIGQA", "result": "(+) ((+)<1)"}
{"polymerSequence": "SISGQQLTCRASHCWLNLPWHS", "result": "(+) ((+)<1)"}
{"polymerSequence": "RSQGRKLTCLASYCWLFLVVHR", "result": "(++) ((++) 1-2)"}
{"polymerSequence": "KGRCLTSHCWLF", "result": "(+) ((+)<1)"}
{"polymerSequence": "KLTCLASQCWLF", "result": "(+++) ((+++)>2)"}

---

Δ kcat values, listed per item
targetOfAssay: FIXa (Homo sapiens, UniProt P00740)
assayComment: Km/Kcat of FIXa for the substrate FX (FXa generation assay)
Format: biochemical
Design: purchased Haematologic Technologies
runParameters: relative to buffer (1.0); compound 1 3 μM, compounds 3, 4, 5 1 μM, compound C 10 μM

{"substance": "KLTCLASYCWLF [Compound 1]", "Δ kcat": 160}
{"substance": "rRAPGKLTCLASYCWLFWTGIA [Compound 5]", "Δ kcat": 199}
{"substance": "RRAPGKLQCLASYCWLFWTGIA [Compound 3]", "Δ kcat": 197}
{"substance": "RRAPGKLTCLASYCWLFWTGIA [Compound 4]", "Δ kcat": 190}

---

Tested on: FVIII deficient human plasma
assayComment: Thrombin generation assay (TGA) in FVIII-deficient plasma
Type: biochemical
Set-up: key: 1-10 nM (1) or 1-29 nM (2) (+); 11-20 nM (1) or 30-59 nM (2) (++); 21-30 nM (1) or 60-90 nM (2) (+++); >30 nM (1) or >90 nM (2) (++++); At or about baseline (−)
runParameters: HRF FVIII-deficient plasma (1); 2.5 μM
measuredAttribute: Thrombin Above Baseline (nM)

{"substance": "KLTCLASYCWLF [Compound 1]", "measuredAttribute": "Thrombin Above Baseline (nM)", "result": "−"}

---

targetOfAssay: FIXa (Homo sapiens)
assayComment: FXa generation assay with human FIXa
Format: biochemical
Design: purchased Haematologic Technologies
runParameters: FXa generation assay using human FIXa; class symbols

{"polymerSequence": "DAKVAKLRCLGSQCWLLQYAPG", "Vmax": "(++) ((++) 1-2)"}
{"polymerSequence": "KEGFAQLPCLVCQGGLFSPRAI", "Vmax": "(+) ((+)<1)"}
{"polymerSequence": "SKWEHQRGCLANNCWLFTLAPG", "Vmax": "(+) ((+)<1)"}
{"polymerSequence": "KRYVYRQMCLVSACWLLQLGYA", "Vmax": "(++) ((++) 1-2)"}
{"polymerSequence": "VSGTGRLTCVASYCWMFQLGIF", "Vmax": "(++) ((++) 1-2)"}
{"polymerSequence": "GAQLDKETCLASYCQLFSTVRR", "Vmax": "(+) ((+)<1)"}
{"polymerSequence": "QLPCLASYCGLF", "Vmax": "(+) ((+)<1)"}
